Assay: Toxicokinetics after escalating intravenous doses of CKLP1 in beagles
Assay type: in vivo, beagle dog
Conditions: female, beagle, dog, in vivo, iv, 3 mg/kg

{"Smiles notation": "CC1(C)Oc2ccc(C#N)cc2[C@@H](N2CCCC2=O)[C@@H]1OP(=O)(O)O", "C0 [ng/mL]": 22700}

###

Assay: Toxicokinetics after escalating intravenous doses of CKLP1 in beagles
Type: in vivo, beagle dog
Conditions: female, beagle, dog, in vivo, iv, 5 mg/kg

{"Compound": "CC1(C)Oc2ccc(C#N)cc2[C@@H](N2CCCC2=O)[C@@H]1OP(=O)(O)O [CKLP1]", "AUC(0-t) / µg·h/mL": 311}

###

Test: Toxicokinetics after escalating intravenous doses of CKLP1 in beagles
Format: in vivo, beagle dog
Details: female, beagle, dog, in vivo, iv, 0.5 mg/kg
Quantity measured: Vd (L/kg)

{"Smiles notation": "CC1(C)Oc2ccc(C#N)cc2[C@@H](N2CCCC2=O)[C@@H]1OP(=O)(O)O", "Quantity measured": "Vd", "Unit abbrev": "L/kg", "Reading": 0.139}

###

Measured Cmax, listed per entry for reference.
Experiment: Toxicokinetics after escalating intravenous doses of CKLP1 in beagles
Format: in vivo, beagle dog
Details: male, beagle, dog, in vivo, iv, 3 mg/kg

{"Compound": "CC1(C)Oc2ccc(C#N)cc2[C@@H](N2CCCC2=O)[C@@H]1O [Levcromakalim, levcromakalim, reference compound]", "Cmax [ng/mL]": 42.7}
{"Compound": "CC1(C)Oc2ccc(C#N)cc2[C@@H](N2CCCC2=O)[C@@H]1OP(=O)(O)O", "Cmax [ng/mL]": 14400}

###

Assay: Toxicokinetics after escalating intravenous doses of CKLP1 in beagles
Assay type: in vivo, beagle dog
Details: male, beagle, dog, in vivo, iv, 0.05 mg/kg

{"Smiles notation": "CC1(C)Oc2ccc(C#N)cc2[C@@H](N2CCCC2=O)[C@@H]1OP(=O)(O)O", "Cmax": "245 ng/mL"}

###

Test: Toxicokinetics after escalating intravenous doses of CKLP1 in beagles
Assay type: in vivo, beagle dog
Details: male, beagle, dog, in vivo, iv, 1.5 mg/kg

{"Smiles notation": "CC1(C)Oc2ccc(C#N)cc2[C@@H](N2CCCC2=O)[C@@H]1OP(=O)(O)O", "C0": "10400 ng/mL"}

###

Experiment: Toxicokinetics after escalating intravenous doses of CKLP1 in beagles
Type: in vivo, beagle dog
Settings: male, beagle, dog, in vivo, iv, 0.05 mg/kg
Experimental: Two beagles (one male and one female) were intravenously injected with escalating doses of CKPL1 (0.05 mg/kg, 0.5 mg/kg, 1.5 mg/kg, 3 mg/kg, and 5 mg/kg) to assess the toxicity of CKLP1. […] The following parameters and endpoints were evaluated: mortality, clinical observations, body and organ weights, and food consumption. […] Toxicokinetics (TK) were determined based on the individual exposures for each animal on each sampled study day (days 1, 3, 8, 10, and 14). […]

{"Smiles notation": "CC1(C)Oc2ccc(C#N)cc2[C@@H](N2CCCC2=O)[C@@H]1OP(=O)(O)O", "Unit abbrev": "ng/mL", "C0": 301}

###

Test: Plasma pharmacokinetics, 28-day topical ophthalmic dosing in beagle dogs
Conditions: female, beagle, dog, in vivo, topical or ocular, 1.07 mg/kg, Cmax

{"Compound": "CC1(C)Oc2ccc(C#N)cc2[C@@H](N2CCCC2=O)[C@@H]1OP(=O)(O)O [CKLP1]", "Unit abbrev": "ng/mL", "Cmax": 156}

###

Experiment: Plasma pharmacokinetics, 28-day topical ophthalmic dosing in beagle dogs
Conditions: male, beagle, dog, in vivo, topical or ocular, 0.81 mg/kg

{"Compound": "CC1(C)Oc2ccc(C#N)cc2[C@@H](N2CCCC2=O)[C@@H]1OP(=O)(O)O [CKLP1]", "Unit abbrev": "ng·h/mL", "AUC(0-inf)": 1580}

###

Assay: Plasma pharmacokinetics of CKLP1 and levcromakalim after topical dosing in hound dogs
Type: in vivo, hound dog
Details: hound, dog, plasma, topical or ocular, 10 mM, CKLP1; topical 10 mM CKLP1 once daily; Day 1

{"Smiles notation": "CC1(C)Oc2ccc(C#N)cc2[C@@H](N2CCCC2=O)[C@@H]1OP(=O)(O)O", "half-life (h)": 3.01}

###

Assay: Plasma pharmacokinetics, 28-day topical ophthalmic dosing in beagle dogs
Conditions: beagle, dog, in vivo, mean T1/2 of levcromakalim

{"Molecule": "CC1(C)Oc2ccc(C#N)cc2[C@@H](N2CCCC2=O)[C@@H]1O [Levcromakalim, levcromakalim, reference compound]", "half-life": "2.06 to 4.9 h"}

###

Experiment: Toxicokinetics after escalating intravenous doses of CKLP1 in beagles
Type: in vivo, beagle dog
Settings: female, beagle, dog, in vivo, iv, 0.05 mg/kg

{"Compound": "CC1(C)Oc2ccc(C#N)cc2[C@@H](N2CCCC2=O)[C@@H]1OP(=O)(O)O [CKLP1]", "Unit abbrev": "ng/mL", "Cmax": 356}

###

Assay: Toxicokinetics after escalating intravenous doses of CKLP1 in beagles
Assay type: in vivo, beagle dog
Settings: male, beagle, dog, in vivo, iv, 0.05 mg/kg

{"Smiles notation": "CC1(C)Oc2ccc(C#N)cc2[C@@H](N2CCCC2=O)[C@@H]1OP(=O)(O)O", "clearance [mL/min/kg]": 0.678}

###

Assay: Toxicokinetics after escalating intravenous doses of CKLP1 in beagles
Format: in vivo, beagle dog
Details: male, beagle, dog, in vivo, iv, 1.5 mg/kg
Item-by-item account of AUC(0-inf)

{"Compound": "CC1(C)Oc2ccc(C#N)cc2[C@@H](N2CCCC2=O)[C@@H]1OP(=O)(O)O", "AUC(0-inf) [ng·h/mL]": 43300}
{"Compound": "CC1(C)Oc2ccc(C#N)cc2[C@@H](N2CCCC2=O)[C@@H]1O [Levcromakalim, levcromakalim, reference compound]", "AUC(0-inf) [ng·h/mL]": 192}

###

Test: Toxicokinetics after escalating intravenous doses of CKLP1 in beagles
Type: in vivo, beagle dog
Settings: female, beagle, dog, in vivo, iv, 0.5 mg/kg
Quantity measured: Tmax (h)

{"Smiles notation": "CC1(C)Oc2ccc(C#N)cc2[C@@H](N2CCCC2=O)[C@@H]1OP(=O)(O)O", "Reading": 1}

###

Assay: Plasma pharmacokinetics, 28-day topical ophthalmic dosing in beagle dogs
Conditions: female, beagle, dog, in vivo, topical or ocular, […], t1/2
Quantity measured: half-life (h)

{"Smiles notation": "CC1(C)Oc2ccc(C#N)cc2[C@@H](N2CCCC2=O)[C@@H]1OP(=O)(O)O", "Unit abbrev": "h", "Reading": 6.18}

###

Experiment: Toxicokinetics after escalating intravenous doses of CKLP1 in beagles
Type: in vivo, beagle dog
Conditions: male, beagle, dog, in vivo, iv, 0.5 mg/kg

{"Smiles notation": "CC1(C)Oc2ccc(C#N)cc2[C@@H](N2CCCC2=O)[C@@H]1OP(=O)(O)O", "Cmax [ng/mL]": 2600}

###

Experiment: Toxicokinetics after escalating intravenous doses of CKLP1 in beagles
Assay type: in vivo, beagle dog
Settings: female, beagle, dog, in vivo, iv, 0.05 mg/kg

{"Smiles notation": "CC1(C)Oc2ccc(C#N)cc2[C@@H](N2CCCC2=O)[C@@H]1OP(=O)(O)O", "C0": "461 ng/mL"}

###

Assay: Toxicokinetics after escalating intravenous doses of CKLP1 in beagles
Type: in vivo, beagle dog
Conditions: female, beagle, dog, in vivo, iv, 5 mg/kg

{"Smiles notation": "CC1(C)Oc2ccc(C#N)cc2[C@@H](N2CCCC2=O)[C@@H]1OP(=O)(O)O", "Unit abbrev": "mL/min/kg", "clearance": 0.253}

###

Experiment: Plasma pharmacokinetics, 28-day topical ophthalmic dosing in beagle dogs
Conditions: female, beagle, dog, in vivo, topical or ocular, 1.07 mg/kg

{"Smiles notation": "CC1(C)Oc2ccc(C#N)cc2[C@@H](N2CCCC2=O)[C@@H]1OP(=O)(O)O", "Tmax / h": 2}

###

Assay: Toxicokinetics after escalating intravenous doses of CKLP1 in beagles
Assay type: in vivo, beagle dog
Settings: both sexes, beagle, dog, in vivo; CKLP1; IV 3 mg/kg; read-out: Cmax at MTD, sex-combined
Method: Two beagles (one male and one female) were intravenously injected with escalating doses of CKPL1 (0.05 mg/kg, 0.5 mg/kg, 1.5 mg/kg, 3 mg/kg, and 5 mg/kg) to assess the toxicity of CKLP1. […] The following parameters and endpoints were evaluated: mortality, clinical observations, body and organ weights, and food consumption. […] Toxicokinetics (TK) were determined based on the individual exposures for each animal on each sampled study day (days 1, 3, 8, 10, and 14). […]

{"Smiles notation": "CC1(C)Oc2ccc(C#N)cc2[C@@H](N2CCCC2=O)[C@@H]1OP(=O)(O)O", "Cmax, ng/mL": 16400}

###

Assay: Toxicokinetics after escalating intravenous doses of CKLP1 in beagles
Format: in vivo, beagle dog
Settings: male, beagle, dog, in vivo, iv, 0.05 mg/kg
Description: Two beagles (one male and one female) were intravenously injected with escalating doses of CKPL1 (0.05 mg/kg, 0.5 mg/kg, 1.5 mg/kg, 3 mg/kg, and 5 mg/kg) to assess the toxicity of CKLP1. […] The following parameters and endpoints were evaluated: mortality, clinical observations, body and organ weights, and food consumption. […] Toxicokinetics (TK) were determined based on the individual exposures for each animal on each sampled study day (days 1, 3, 8, 10, and 14). […]

{"Molecule": "CC1(C)Oc2ccc(C#N)cc2[C@@H](N2CCCC2=O)[C@@H]1OP(=O)(O)O [CKLP1]", "Unit abbrev": "h", "Tmax": 1}
